Tested on: U2OS
experiment notes: cell viability relative to DMSO; higher = less toxic
conditions: 72 h; 1 nM
property measured: cell viability (%)
# value in %; strip the unit string

# count of solved cases: 3
// query cell viability value for entry CCCc1cc(C(N)=S)ccn1 [protionamide]
104

Would you mind telling me what cell viability value was observed for CCCCN1CCC(CCC(=O)c2cc(Cl)c(N)cc2OC)CC1 ?
104

Could you share which cell viability value was measured for CCOc1c2c(c(OCC)c3ccccc13)C(=O)N(c1ccc(CC(=O)NS(=O)(=O)c3ccccc3)cc1)C2 ?
99.4

Please look at the following compound next.
cell viability lookup needed for CC1(C)Oc2ccc(C#N)cc2[C@@H](N2CCCC2=O)[C@@H]1O , thanks.
103
